Taken from patent US20260132129A1.

target: PI3Kα H1047R (T47D cells) (Homo sapiens, UniProt P42336, H1047R); construct: endogenous in cells; host or cells: T47D cells; assay: PI3Kα cellular assay: pAKT HTRF in T47D cells after EGF stimulation; format: cell-based; conditions: T47D cells (PI3Kα H1047R), pAKT S473 HTRF, 1 hr compound, 20 ng/ml EGF 10 min
Sequence (P42336 whole entry H1047R): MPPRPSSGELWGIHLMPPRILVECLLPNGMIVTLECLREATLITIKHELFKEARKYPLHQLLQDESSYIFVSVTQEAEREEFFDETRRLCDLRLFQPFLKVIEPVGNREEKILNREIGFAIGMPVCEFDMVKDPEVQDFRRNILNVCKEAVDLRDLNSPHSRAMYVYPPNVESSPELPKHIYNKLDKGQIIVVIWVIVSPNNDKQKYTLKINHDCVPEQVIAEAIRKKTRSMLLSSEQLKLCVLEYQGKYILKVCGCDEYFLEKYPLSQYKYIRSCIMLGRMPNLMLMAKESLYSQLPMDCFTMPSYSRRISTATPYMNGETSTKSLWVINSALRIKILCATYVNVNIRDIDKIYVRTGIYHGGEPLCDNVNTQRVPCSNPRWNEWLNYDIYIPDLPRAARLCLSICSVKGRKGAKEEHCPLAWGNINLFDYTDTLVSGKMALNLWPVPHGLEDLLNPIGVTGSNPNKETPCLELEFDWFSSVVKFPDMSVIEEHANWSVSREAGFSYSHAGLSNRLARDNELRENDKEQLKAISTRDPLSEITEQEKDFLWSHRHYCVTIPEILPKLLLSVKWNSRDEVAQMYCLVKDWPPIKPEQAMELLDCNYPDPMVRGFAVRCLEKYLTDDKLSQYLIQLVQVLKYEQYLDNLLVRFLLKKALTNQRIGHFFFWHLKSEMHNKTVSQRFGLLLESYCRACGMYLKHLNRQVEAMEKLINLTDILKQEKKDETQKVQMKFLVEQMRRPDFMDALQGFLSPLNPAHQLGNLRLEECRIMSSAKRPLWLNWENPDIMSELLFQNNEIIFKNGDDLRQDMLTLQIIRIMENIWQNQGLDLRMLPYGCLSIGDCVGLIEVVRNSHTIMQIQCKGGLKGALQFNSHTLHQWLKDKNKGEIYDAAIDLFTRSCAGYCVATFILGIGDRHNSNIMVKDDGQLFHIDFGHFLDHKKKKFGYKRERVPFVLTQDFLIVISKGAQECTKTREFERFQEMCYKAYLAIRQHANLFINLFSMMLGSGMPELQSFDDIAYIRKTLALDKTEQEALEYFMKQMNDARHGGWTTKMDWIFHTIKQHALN
Sequence (P27986 whole entry partner): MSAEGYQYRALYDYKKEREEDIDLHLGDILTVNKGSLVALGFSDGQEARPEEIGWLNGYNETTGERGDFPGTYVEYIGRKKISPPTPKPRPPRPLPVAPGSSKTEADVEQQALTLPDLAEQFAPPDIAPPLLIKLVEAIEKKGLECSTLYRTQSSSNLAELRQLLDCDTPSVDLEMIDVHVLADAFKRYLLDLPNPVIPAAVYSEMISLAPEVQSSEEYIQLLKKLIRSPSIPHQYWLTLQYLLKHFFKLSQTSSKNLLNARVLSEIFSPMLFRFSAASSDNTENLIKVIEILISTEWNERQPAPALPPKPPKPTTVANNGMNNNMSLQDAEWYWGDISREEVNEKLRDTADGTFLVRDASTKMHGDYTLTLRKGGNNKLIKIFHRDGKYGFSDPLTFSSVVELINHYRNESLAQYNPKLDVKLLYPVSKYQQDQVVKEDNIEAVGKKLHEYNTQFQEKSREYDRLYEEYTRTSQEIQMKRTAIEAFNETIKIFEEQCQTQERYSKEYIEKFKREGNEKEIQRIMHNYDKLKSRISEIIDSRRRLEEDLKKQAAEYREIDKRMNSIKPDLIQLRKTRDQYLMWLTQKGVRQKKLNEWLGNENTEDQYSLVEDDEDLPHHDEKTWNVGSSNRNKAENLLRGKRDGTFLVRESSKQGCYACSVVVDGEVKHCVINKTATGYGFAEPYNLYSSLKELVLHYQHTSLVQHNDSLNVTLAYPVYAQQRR
pIC50: −log10 of the molar value.
Reported pIC50 values follow for various compounds

// below: answered compounds
Cc1cc([C@H](C)Nc2c(F)cccc2C(=O)O)c2nc(N3CCOCC3)cc(=O)n2c1	< 5.70
Cc1cc(C(C)Nc2ccccc2C(=O)O)c2nc(-c3ccc4c(c3)NC(=O)C4)cc(=O)n2c1 (centres unmarked)	5.70 to 6.30
Cc1cc([C@@H](C)Nc2ccccc2C)c2nc(N3CCOCC3)cc(=O)n2c1	> 7.00

Then there is this compound:
Need pIC50 of Cc1cc([C@@H](C)Nc2ccccc2C(=O)O)c2nc(N3CCN(C)CC3)cc(=O)n2c1 , thanks.
< 5.70

###

molecular target: PI3Kα H1047R (T47D cells) (Homo sapiens, UniProt P42336, H1047R); construct: endogenous in cells; host or cells: T47D cells; assay: PI3Kα cellular assay: pAKT HTRF in T47D cells after EGF stimulation; type: cell-based; settings: T47D cells (PI3Kα H1047R), pAKT S473 HTRF, EGF stimulation
Each entry below lists one item and its recorded IC50 value.

Cc1cc([C@@H](C)Nc2ccccc2C(N)=O)c2nc(-c3cccc(C#N)c3)c(C)c(=O)n2c1	< 0.1 µM
C=CC(=O)Nc1ccc(C(=O)O)c(N[C@H](C)c2cc(C)cn3c(=O)cc(N4CCOCC4)nc23)c1	> 2 µM
Cc1cc([C@H](C)Nc2ccccc2C(=O)O)c2nc([C@H]3CCCOC3)c(C)c(=O)n2c1	> 2 µM
COc1ccc(-c2nc3c([C@H](C)Nc4ccccc4C(=O)O)cc(C)cn3c(=O)c2C)cc1	> 2 µM

Form entry - test system: PI3Kα H1047R (T47D cells) (Homo sapiens, UniProt P42336, H1047R); read-out: IC50; molecule: Cc1cc(C(C)Nc2ccccc2C(N)=O)c2nc(-c3cccnc3)c(C)c(=O)n2c1 (centres unmarked)
0.1 to 0.5 µM

# get_value(readout= IC50, system= PI3Kα H1047R (T47D cells) (Homo sapiens, UniProt P42336, H1047R)) for Cc1cc([C@H](C)Nc2ccccc2)c2nc(-c3ccc(F)cc3)c(C)c(=O)n2c1
> 2 µM

Form field: IC50 recorded for Cc1cc([C@H](C)Nc2ccccc2C(=O)O)c2nc(-c3ccc(-c4ccc5c(c4)CCO5)c(F)c3)c(C)c(=O)n2c1 with PI3Kα H1047R (T47D cells) (Homo sapiens, UniProt P42336, H1047R) (enter value)
> 2 µM

Fill in the recorded IC50 for this molecule, with PI3Kα H1047R (T47D cells) (Homo sapiens, UniProt P42336, H1047R) as test system: Cc1cc(C(C)Nc2ccccc2C(=O)O)c2nc(-c3ccc(CC4CCN(C(=O)C5CC5)CC4)c(F)c3)c(C)c(=O)n2c1 (centres unmarked)
0.1 to 0.5 µM

Value wanted: IC50 (PI3Kα H1047R (T47D cells) (Homo sapiens, UniProt P42336, H1047R)) of entry Cc1cc(C(C)Nc2ccccc2C(=O)O)c2nc(-c3ccc4c(c3)C(C)NN4C)cc(=O)n2c1 (centres unmarked)
> 2 µM

Find IC50 (PI3Kα H1047R (T47D cells) (Homo sapiens, UniProt P42336, H1047R)) for the entry Cc1cc([C@H](C)Nc2ccccc2C(=O)O)c2nc(-c3ccc4snc(N)c4c3)cc(=O)n2c1
> 2 µM

Tell me reported IC50 for Cc1cc(C(C)Nc2ccccc2C(=O)O)c2nc(-c3ccc4c(c3)c(C)nn4C3CC3)cc(=O)n2c1 (centres unmarked) , tested with PI3Kα H1047R (T47D cells) (Homo sapiens, UniProt P42336, H1047R).
< 0.1 µM

IC50 of CC(=O)c1ccc(-c2cc(=O)n3cc(C)cc([C@@H](C)Nc4ccccc4C(=O)O)c3n2)cc1 on PI3Kα H1047R (T47D cells) (Homo sapiens, UniProt P42336, H1047R)?
< 0.1 µM

Value wanted: IC50 (PI3Kα H1047R (T47D cells) (Homo sapiens, UniProt P42336, H1047R)) of entry Cc1cc([C@H](C)Nc2cccnc2-c2ccnnc2)c2nc(N3Cc4ccccc4C3)cc(=O)n2c1
0.1 to 0.5 µM
